Molecular target: human ALX receptor (Homo sapiens)
Sequence (P25090 1-351): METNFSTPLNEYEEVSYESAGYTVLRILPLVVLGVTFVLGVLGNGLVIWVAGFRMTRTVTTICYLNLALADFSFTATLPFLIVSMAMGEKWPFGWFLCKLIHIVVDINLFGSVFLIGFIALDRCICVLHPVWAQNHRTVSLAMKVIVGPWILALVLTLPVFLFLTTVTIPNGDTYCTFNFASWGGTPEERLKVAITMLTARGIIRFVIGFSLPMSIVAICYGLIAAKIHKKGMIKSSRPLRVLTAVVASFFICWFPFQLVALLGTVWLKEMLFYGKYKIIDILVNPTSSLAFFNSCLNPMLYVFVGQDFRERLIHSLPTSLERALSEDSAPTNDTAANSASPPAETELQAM
Experiment: Intracellular calcium measurements (FLIPR), agonistic activity in HEK293-hALXR-Gα16 cells
Settings: Fluo-4 calcium FLIPR, normalized to WKYMVm 10 nM
Criterion: EC50 strictly under 200 nM. Met: fulfilled. Not met: not fulfilled.

Consider the following illustrative entries.
1. Cc1ccc(CCNC(=O)[C@H]2[C@H](C(=O)NCCCCN3CCCC3)[C@H]3C=C[C@@H]2C32CC2)cc1C (racemic)
not fulfilled
2. CN(C)CCN(C)C(=O)[C@H]1[C@H](C(=O)Nc2ccc(Br)cc2)[C@@H]2C=C[C@H]1C21CC1 (racemic)
fulfilled
3. O=C(CCc1ccc(F)cc1)NC[C@H]1[C@H](C(=O)Nc2ccc(Br)cc2)[C@@H]2C=C[C@H]1C21CC1 (racemic)
not fulfilled
4. CC(=O)c1ccc(CNC(=O)C2C(C(=O)NCCCCN3CCCC3)C3CCC2C32CC2)o1 (stereo not drawn)
fulfilled
5. O=C(NCCCCN1CCCC1)[C@H]1[C@H](C(=O)Nc2cc(F)c(Br)c(F)c2)[C@@H]2C=C[C@H]1C21CC1
not fulfilled
6. CN1CCCC1CCNC(=O)C1C(C(=O)Nc2ccc(Br)cc2)C2C=CC1C21CC1 (mixture of isomers)
fulfilled
7. O=C(NCCCc1nc2ccccc2[nH]1)[C@H]1[C@H](C(=O)Nc2ncc(Br)s2)[C@@H]2C=C[C@H]1C21CC1 (racemic)
fulfilled
8. O=C(NCCCCN1CCCC1)[C@H]1[C@H](C(=O)Nc2cnc(Cl)nc2)[C@@H]2C=C[C@H]1C21CC1 (racemic)
not fulfilled

(Q) Regarding CC(CO)NC(=O)C1C(C(=O)Nc2ccc(Br)cc2)C2C=CC1C21CC1 (mixture of isomers) , kindly confirm whether its EC50 is beneath 200 nM.
(A) fulfilled
